From: patent US8895695B2

System: human red blood cells (hRBC)
Test: Hemolysis
Assay type: cell-based
Bridge positions count the residues as written; N and C are the ends. Square brackets hold non-standard residues; d marks the D form. Peptide text beside a SMILES is read from it. 2Nal = N[C@@H](Cc1ccc2ccccc2c1)C(=O)O; Cit = NC(=O)NCCC[C@H](N)C(=O)O
value-type: Hemolysis at 100 μM (%)
// note: answer is a bare numeric in %

INPUT: Quick check: Hemolysis at 100 μM of N=C(N)NCCC[C@@H]1NC(=O)[C@@H]2CSSC[C@H](NC(=O)[C@H](Cc3ccc4ccccc4c3)NC(=O)[C@H](CCCNC(=N)N)NC(=O)[C@H](CCCNC(=N)N)NC(=O)[C@H]3CCCN3C(=O)CNC1=O)C(=O)N[C@@H](Cc1ccc(O)cc1)C(=O)N[C@@H](CCC(N)=O)C(=O)N[C@@H](CCC(N)=O)C(=O)N1CCC[C@@H]1C(=O)N1CCC[C@H]1C(=O)N[C@@H](Cc1ccc(O)cc1)C(=O)N[C@@H](CCCNC(=N)N)C(=O)N[C@@H](CCCNC(N)=O)C(=O)N2 [Ex. 60] (cyclo(YR[Cit]CRG[dP]RR[2Nal]CYQQ[dP]P); disulfide 4-11) ?
OUTPUT: 0.1

---

Tested on: human red blood cells (hRBC)
Assay: Hemolysis
Type: cell-based
Settings: percent hemolysis; 100 μM peptide, 20% v/v hRBC, 1 hour at 37° C.
Bridge positions count the residues as written; N and C are the ends. Square brackets hold non-standard residues; d marks the D form. Peptide text beside a SMILES is read from it. Cit = NC(=O)NCCC[C@H](N)C(=O)O
value-type: Hemolysis at 100 μM (%)
Your answer should be a plain number; it is taken to be in %.

INPUT: Return Hemolysis at 100 μM measured with human red blood cells (hRBC) given this compound: N=C(N)NCCC[C@@H]1NC(=O)[C@@H]2CSSC[C@H](NC(=O)[C@H](Cc3ccc(O)cc3)NC(=O)[C@H](CCCNC(=N)N)NC(=O)[C@H](CCCNC(=N)N)NC(=O)[C@H]3CCCN3C(=O)CNC1=O)C(=O)N[C@@H](Cc1ccc(O)cc1)C(=O)N[C@@H](CCC(N)=O)C(=O)N[C@@H](CCCCN)C(=O)N[C@H](CCC(N)=O)C(=O)N1CCC[C@H]1C(=O)N[C@@H](Cc1ccc(O)cc1)C(=O)N[C@@H](CCCNC(=N)N)C(=O)N[C@@H](CCCNC(N)=O)C(=O)N2 [Ex. 149] (cyclo(YR[Cit]CRG[dP]RRYCYQK[dQ]P); disulfide 4-11)
OUTPUT: 0

---

Test: Pharmacokinetic study (PK) after single i.v. and i.p. administration
Format: in vivo, male CD-1 mice
Conditions: male, CD-1, mouse, in vivo, iv, 2 mg/kg
value-type: level at 0.5 h
Answer with the value and then the unit.

INPUT: Fill in: level at 0.5 h of N=C(N)NCCC[C@@H]1NC(=O)[C@@H]2CSSC[C@H](NC(=O)[C@H](Cc3ccc4ccccc4c3)NC(=O)[C@H](CCCNC(=N)N)NC(=O)[C@H](CCCNC(=N)N)NC(=O)[C@H]3CCCN3C(=O)CNC1=O)C(=O)N[C@@H](Cc1ccc(O)cc1)C(=O)N[C@@H](CCCNC(N)=O)C(=O)N[C@@H](CCCCN)C(=O)N1CCC[C@@H]1C(=O)N1CCC[C@H]1C(=O)N[C@@H](Cc1ccc(O)cc1)C(=O)N[C@@H](CCCNC(=N)N)C(=O)N[C@@H](CCCNC(N)=O)C(=O)N2 is ___
OUTPUT: 300 ng/mL

---

Assay: in vitro
Details: human, HELA cells (Acc57)
Square brackets hold non-standard residues; d marks the D form. Peptide text beside a SMILES is read from it. 2Nal = N[C@@H](Cc1ccc2ccccc2c1)C(=O)O; Cit = NC(=O)NCCC[C@H](N)C(=O)O
value-type: CC50 at 48 h (µM)
Unit µM implied. Number only.

INPUT: Which CC50 at 48 h value is on record for CC(C)[C@@H]1NC(=O)[C@H](Cc2ccc3ccccc3c2)NC(=O)[C@H](CCCNC(=N)N)NC(=O)[C@H](CCCNC(=N)N)NC(=O)[C@@H]2CCCN2C(=O)[C@H](C(C)C)NC(=O)[C@H](CCCNC(=N)N)NC(=O)[C@H](Cc2ccccc2)NC(=O)[C@H](CCCNC(N)=O)NC(=O)[C@H](CCCNC(=N)N)NC(=O)[C@H](Cc2ccc(O)cc2)NC(=O)[C@@H]2CCCN2C(=O)[C@H]2CCCN2C(=O)[C@H](CCCCN)NC(=O)[C@H](CCCNC(N)=O)NC(=O)[C@H](Cc2ccc(O)cc2)NC1=O [compound 22] (cyclo(YR[Cit]FRVPRR[2Nal]VY[Cit]K[dP]P)) ?
OUTPUT: 139

---

System: human red blood cells (hRBC)
Experiment: Hemolysis
Type: cell-based
Bridge positions count the residues as written; N and C are the ends. Square brackets hold non-standard residues; d marks the D form. Peptide text beside a SMILES is read from it. 2Nal = N[C@@H](Cc1ccc2ccccc2c1)C(=O)O; Cit = NC(=O)NCCC[C@H](N)C(=O)O
value-type: Hemolysis at 100 μM (%)
Report only the number, with the unit % understood.

INPUT: Hemolysis at 100 μM for N=C(N)NCCC[C@@H]1NC(=O)[C@@H]2CSSC[C@H](NC(=O)[C@H](Cc3ccc4ccccc4c3)NC(=O)[C@H](CCCNC(=N)N)NC(=O)[C@H](CCCNC(=N)N)NC(=O)[C@H]3CCCN3C(=O)CNC1=O)C(=O)N[C@@H](Cc1ccc(O)cc1)C(=O)N[C@@H](CCC(N)=O)C(=O)N[C@@H](CCCCN)C(=O)N1CCC[C@@H]1C(=O)N1CCC[C@H]1C(=O)N[C@@H](Cc1c[nH]c3ccccc13)C(=O)N[C@@H](CCCNC(=N)N)C(=O)N[C@@H](CCCNC(N)=O)C(=O)N2 [Ex. 66] (cyclo(WR[Cit]CRG[dP]RR[2Nal]CYQK[dP]P); disulfide 4-11) ?
OUTPUT: 0

---

Molecular target: CXCR4 (Homo sapiens)
Sequence (P61073 whole entry): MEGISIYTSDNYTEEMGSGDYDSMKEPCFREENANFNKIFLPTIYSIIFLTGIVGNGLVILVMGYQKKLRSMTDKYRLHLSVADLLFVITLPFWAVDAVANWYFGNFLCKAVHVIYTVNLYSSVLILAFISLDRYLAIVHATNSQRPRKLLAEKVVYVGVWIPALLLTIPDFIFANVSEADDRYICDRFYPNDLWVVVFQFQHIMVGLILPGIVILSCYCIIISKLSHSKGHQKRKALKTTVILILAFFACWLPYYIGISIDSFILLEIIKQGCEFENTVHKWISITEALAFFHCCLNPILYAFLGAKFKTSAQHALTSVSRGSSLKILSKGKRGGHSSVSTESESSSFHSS
Assay: Ca2+-assay method 2 (Flexstation, SDF-1 induced calcium mobilization)
Format: cell-based
Design: expressed in transfected cells; host or cells: mouse pre-B cell line 300-19
Settings: method 2 (Ex. 54-160), mouse pre-B cell line 300-19 with human CXCR4, 10 nM SDF-1; read-out: IC50 (nM) Ca^2+ assay
Bridge positions count the residues as written; N and C are the ends. Square brackets hold non-standard residues; d marks the D form. Peptide text beside a SMILES is read from it. 2Nal = N[C@@H](Cc1ccc2ccccc2c1)C(=O)O; Cit = NC(=O)NCCC[C@H](N)C(=O)O
Measured IC50 of individual entries
// units = nM; emit number, no label

compound	test-value
CSCC[C@@H]1NC(=O)[C@H](CCCNC(=N)N)NC(=O)[C@H](Cc2ccc(O)cc2)NC(=O)[C@@H]2CCCN2C(=O)[C@H]2CCCN2C(=O)[C@H](CCCCN)NC(=O)[C@H](CCC(N)=O)NC(=O)[C@H](Cc2ccc(O)cc2)NC(=O)[C@@H]2CSSC[C@H](NC1=O)C(=O)N[C@@H](CCCNC(=N)N)C(=O)NCC(=O)N1CCC[C@@H]1C(=O)N[C@@H](CCCNC(=N)N)C(=O)N[C@@H](CCCNC(=N)N)C(=O)N[C@@H](Cc1ccc3ccccc3c1)C(=O)N2 [Ex. 100] (cyclo(YRMCRG[dP]RR[2Nal]CYQK[dP]P); disulfide 4-11)	7

Here is the next item to consider.
INPUT: Observed IC50 on CXCR4 (Homo sapiens) for CC(C)[C@@H]1NC(=O)[C@@H]2CCCN2C(=O)[C@H]2CCCN2C(=O)[C@H](CCCCN)NC(=O)[C@H](CCC(N)=O)NC(=O)[C@H](Cc2ccc(O)cc2)NC(=O)[C@@H]2CSSC[C@H](NC(=O)[C@H](CCCNC(N)=O)NC(=O)[C@H](CCCNC(=N)N)NC1=O)C(=O)N[C@@H](CCCNC(=N)N)C(=O)NCC(=O)N1CCC[C@@H]1C(=O)N[C@@H](CCCNC(=N)N)C(=O)N[C@@H](CCCNC(=N)N)C(=O)N[C@@H](Cc1ccc3ccccc3c1)C(=O)N2 [Ex. 90] (cyclo(VR[Cit]CRG[dP]RR[2Nal]CYQK[dP]P); disulfide 4-11) , please.
OUTPUT: 19.5

---

Test: in vitro
Format: in vitro ADME
Conditions: rat, plasma
Bridge positions count the residues as written; N and C are the ends. Square brackets hold non-standard residues; d marks the D form. Peptide text beside a SMILES is read from it. 2Nal = N[C@@H](Cc1ccc2ccccc2c1)C(=O)O; Cit = NC(=O)NCCC[C@H](N)C(=O)O; Dab = NCC[C@H](N)C(=O)O
The following compounds are listed with their measured half-life at 10 μM values.
Provide only the numeric value, understood in h.

compound	half-life at 10 μM (h)
C[C@@H](O)[C@@H]1NC(=O)[C@H](CCCNC(=N)N)NC(=O)[C@H](Cc2ccc(O)cc2)NC(=O)[C@@H]2CCCN2C(=O)[C@H]2CCCN2C(=O)[C@H](CCCCN)NC(=O)[C@H](CCC(N)=O)NC(=O)[C@H](Cc2ccc(O)cc2)NC(=O)[C@@H]2CSSC[C@H](NC1=O)C(=O)N[C@@H](CCCNC(=N)N)C(=O)NCC(=O)N1CCC[C@@H]1C(=O)N[C@@H](CCN)C(=O)N[C@@H](CCCNC(=N)N)C(=O)N[C@@H](Cc1c[nH]c3ccccc13)C(=O)N2 [Ex. 110] (cyclo(YRTCRG[dP][Dab]RWCYQK[dP]P); disulfide 4-11)	4.32

Please look at the following compound next.
INPUT: Can you share its half-life at 10 μM? I mean this compound: N=C(N)NCCC[C@@H]1NC(=O)[C@H](CCCNC(=N)N)NC(=O)[C@H]2CCCN2C(=O)CNC(=O)[C@H](CO)NC(=O)[C@@H]2CSSC[C@H](NC(=O)[C@H](Cc3ccc4ccccc4c3)NC1=O)C(=O)N[C@@H](Cc1ccc(O)cc1)C(=O)N[C@@H](CCC(N)=O)C(=O)N[C@@H](CCCCN)C(=O)N1CCC[C@@H]1C(=O)N1CCC[C@H]1C(=O)N[C@@H](Cc1ccc(O)cc1)C(=O)N[C@@H](CCCNC(=N)N)C(=O)N[C@@H](CCCNC(N)=O)C(=O)N2 [Ex. 101] (cyclo(YR[Cit]CSG[dP]RR[2Nal]CYQK[dP]P); disulfide 4-11)
OUTPUT: 4.12
